For each record, write down the corresponding % Inhibition.
- assayed.system: 5HT3 receptor (Rattus norvegicus, UniProt P35563)
- Sequence (P35563 24-483): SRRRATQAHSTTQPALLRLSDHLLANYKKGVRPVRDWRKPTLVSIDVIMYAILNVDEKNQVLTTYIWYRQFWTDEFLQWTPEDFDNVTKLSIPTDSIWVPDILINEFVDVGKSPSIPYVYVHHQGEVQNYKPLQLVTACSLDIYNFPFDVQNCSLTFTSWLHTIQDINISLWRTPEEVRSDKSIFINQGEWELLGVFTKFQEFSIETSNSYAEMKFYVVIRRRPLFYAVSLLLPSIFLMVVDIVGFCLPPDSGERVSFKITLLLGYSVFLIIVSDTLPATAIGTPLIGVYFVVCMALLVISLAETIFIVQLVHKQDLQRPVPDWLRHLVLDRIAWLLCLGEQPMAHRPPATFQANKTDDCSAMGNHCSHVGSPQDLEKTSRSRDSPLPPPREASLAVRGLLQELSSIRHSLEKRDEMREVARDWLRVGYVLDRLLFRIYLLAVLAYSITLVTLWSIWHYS
- protocol.description: Inhibition of the von Bezold-Jarisch chemoreflex evoked by 5-HT (20 μg/kg i.v.) in the anesthetised rat (in vivo 5HT3 antagonist activity)
- Design: chemoreflex evoked by 5-HT in the anesthetised rat; from tissue; host or cells: anaesthetised rat in vivo (own knowledge: 5-HT3 receptors on cardiac vagal afferents)
- test.parameters: 100 μg/kg i.v., anesthetized rat, mean ± S.E.M., N=3-7
Counter-ions that a name gives are not always drawn.
Numbers only, in %.

Below, each entry is followed by its recorded % Inhibition result.
Cl.O=C1N(C2CN3CCC2CC3)CC2COc3ccccc3N12 (stereo not shown) : 86.4
CN1C2CCC1CC(N1CC3COc4ccc(Cl)cc4N3C1=O)C2 (stereo not shown) [FCE 26783, hydrochloride] : 30.9

For every record below, what is its % Inhibition?
1. CN1C2CCCC1CC(N1CC3COc4ccccc4N3C1=O)C2 (stereo not shown) [FCE 26963, hydrochloride]
2. CN1C2CCC1CC(N1CC3COc4ccccc4N3C1=O)C2 (stereo not shown) [FCE 26878, hydrochloride]

Reply text:
1. 27.1
2. 85.8

* * *

- assayed.system: 5-HT3 receptor
- protocol.description: Inhibition of the binding of ^3 H-GR65630 to 5-HT3 sites in rat entorhinal cortex
- test.parameters: ^3 H-GR 65630, rat entorhinal cortex, low (affinity site), two-site fit
Structures can show the parent of a compound that is named as a salt.
For each record, write down the corresponding Ki.
One number for each entry, in µM.

CN1C2CCCC1CC(N1CC3COc4ccccc4N3C1=O)C2 (stereo not shown) [FCE 26963, hydrochloride] : 72
CN1C2CCCC1CC(N1CC3COc4ccc(Cl)cc4N3C1=O)C2 (stereo not shown) [FCE 26785, hydrochloride] : 0.6
Cl.O=C1N(C2CN3CCC2CC3)CC2COc3ccc(Cl)cc3N12 (stereo not shown) [FCE 26781, hydrochloride] : 1.9

// next item, Ki requested
Inquiry: Tell me measured Ki for Cl.O=C1N(C2CN3CCC2CC3)CC2COc3ccccc3N12 (stereo not shown) [FCE 26962, hydrochloride] please.
Reply text: 14
